Each entry below carries its recorded %Inh.
- Test system: MTOR;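 note: KINOMEscan kinase panel screen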
- Run Conditions: concentration: 1 μM, replicates: in singlicate; n = 1
Your answer is read as %, so omit the unit and give the number.

Known %Inh results, listed for orientation:
Cn1cc(-c2ccc3c(c2)CCN3C(=O)Cc2cc(F)cc(C(F)(F)F)c2)c2c(N)ncnc21 [GSK2635225] | 35
NCCC(NC(=O)c1cc(Br)c(-c2ccnc3[nH]ccc23)s1)c1ccccc1.O=C(O)C(F)(F)F.O=C(O)C(F)(F)F (stereo not shown) [GSK1307810] | 12
CSc1ccc(NC2=C(c3ccc(Cl)cc3)C(=O)NC2=O)cc1 [SB-317658] | 0

Consider the record given below.
Prompt: For the compound CN(C)CCOc1ccc(-c2cc(-c3ccc(Cl)c(O)c3)c(-c3ccncc3)[nH]2)cc1.Cl.Cl [SB-684387] , what %Inh is on record?
Completion: 19
